tested on: Eimeria tenella; experiment: Inhibitory effects of the derivatives on Eimeria tenella of chicken (60 ppm in feed); format: in vivo; details: Eimeria tenella, 168 h; broilers, 60 ppm in feed, 250,000 E. tenella oocysts, 7 days after inoculation; read-out: Survival rate (%)
READOUT TYPE: responders at 60 ppm, 60 µg/mL (%)

[[record]]
compound = "NC(=O)c1ncn(Cc2c(Cl)cccc2Cl)c1C(N)=O"
value_observed = 100

[[record]]
compound = "CC(=O)NC(=O)c1ncn(Cc2ccc(Cl)cc2)c1C(=O)NC(C)=O"
value_observed = 100

[[record]]
compound = "NC(=O)c1ncn(Cc2ccc(C(F)(F)F)cc2)c1C(N)=O"
value_observed = 100

[[record]]
compound = "COc1ccc(Cn2cnc(C(N)=O)c2C(N)=O)cc1"
value_observed = 100

[[record]]
compound = "NC(=O)c1ncn(Cc2ccc(F)cc2)c1C(N)=O"
value_observed = 100

[[record]]
compound = "Cc1nc(=O)c2[nH]cnc2c(=O)[nH]1"
value_observed = 100

[[record]]
compound = "CCn1cnc(C(=O)NC(C)=O)c1C(=O)NC(C)=O"
value_observed = 100

[[record]]
compound = "NC(=O)c1ncn(Cc2cccc(Cl)c2)c1C(N)=O"
value_observed = 100

[[record]]
compound = "O=C1NC(=O)c2[nH]cnc21 [IST15015, pyrrolo[3,4-d]imidazole-4,6(1H,5H)-dione]"
value_observed = 100

[[record]]
compound = "NC(=O)c1ncn(Cc2ccc(Cl)cc2)c1C(N)=O"
value_observed = 100

[[record]]
compound = "CCCCCCn1cnc(C(N)=O)c1C(N)=O [IST15162, 1-hexyl-1H-imidazole-4,5-dicarboxamide]"
value_observed = 100

[[record]]
compound = "CCCCCn1cnc(C(N)=O)c1C(N)=O [IST15116, 1-pentyl-1H-imidazole-4,5-dicarboxamide]"
value_observed = 100

[[record]]
compound = "CS(=O)(=O)c1ccc(Cn2cnc(C(N)=O)c2C(N)=O)cc1"
value_observed = 100

[[record]]
compound = "CCC(=O)NC(=O)c1ncn(Cc2ccc(Cl)cc2)c1C(=O)NC(=O)CC"
value_observed = 100

[[record]]
compound = "Cc1ccc(Cn2cnc(C(N)=O)c2C(N)=O)cc1"
value_observed = 100

[[record]]
compound = "CCCn1cnc(C(N)=O)c1C(N)=O [IST15038, 1-propyl-1H-imidazole-4,5-dicarboxamide]"
value_observed = 100

[[record]]
compound = "NC(=O)c1ncn(Cc2c(F)cccc2Cl)c1C(N)=O"
value_observed = 100

[[record]]
compound = "NC(=O)c1ncn(Cc2ccc(Oc3ccc(Cl)cc3)cc2)c1C(N)=O"
value_observed = 100

[[record]]
compound = "CC(C)n1cnc(C(N)=O)c1C(N)=O"
value_observed = 100

[[record]]
compound = "NC(=O)c1ncn(Cc2ccc([N+](=O)[O-])cc2)c1C(N)=O"
value_observed = 100


----------
Listing of entries alongside the reported Feed conversion ratio.
system: Eimeria acervulina; test: Inhibitory effects of the derivatives on Eimeria acervulina of chicken; type: in vivo; conditions: broilers, 60 ppm in feed, 400,000 E. acervulina oocysts
READOUT TYPE: Feed conversion ratio

[[record]]
compound = "Cc1nc(=O)c2[nH]cnc2c(=O)[nH]1"
readout_type = "Feed conversion ratio"
value_observed = 2.524

[[record]]
compound = "NC(=O)c1ncn(Cc2ccc(Cl)cc2)c1C(N)=O"
readout_type = "Feed conversion ratio"
value_observed = 2.148

[[record]]
compound = "NC(=O)c1ncn(Cc2ccc(C(F)(F)F)cc2)c1C(N)=O"
readout_type = "Feed conversion ratio"
value_observed = 2.109

[[record]]
compound = "NC(=O)c1ncn(Cc2ccccc2F)c1C(N)=O"
readout_type = "Feed conversion ratio"
value_observed = 2.139

[[record]]
compound = "NC(=O)c1ncn(Cc2cc([N+](=O)[O-])cc([N+](=O)[O-])c2)c1C(N)=O"
readout_type = "Feed conversion ratio"
value_observed = 2.405

[[record]]
compound = "NC(=O)c1ncn(Cc2c(F)cccc2Cl)c1C(N)=O"
readout_type = "Feed conversion ratio"
value_observed = 2.179

[[record]]
compound = "NC(=O)c1ncn(Cc2ccc([N+](=O)[O-])cc2)c1C(N)=O"
readout_type = "Feed conversion ratio"
value_observed = 2.158

[[record]]
compound = "CCCn1cnc(C(N)=O)c1C(N)=O [IST15038, 1-propyl-1H-imidazole-4,5-dicarboxamide]"
readout_type = "Feed conversion ratio"
value_observed = 2.135


Data provenance: patent US10435376B2
